Assign pIC50 to each entry below.
Test system: Human alphaherpesvirus 1
Assay: Antiviral activity against HSV-1 (herpes simplex virus), determined by ELISA in quadruplicate wells using BSC-1 cells
Assay type: functional, organism-based
Settings: Human alphaherpesvirus 1, BSC-1
Give bare numbers, as −log10 of the molar value.

A selection of reference data follows.
>>> observedmeasurement("OC[C@H]1OC(n2c(SCc3ccccc3)nc3nc4cc(Cl)c(Cl)cc4nc32)[C@H](O)[C@@H]1O (stereo not given in full)")
4.52
>>> observedmeasurement("CC(C)Nc1nc2nc3cc(Cl)c(Cl)cc3nc2n1C1O[C@H](CO)[C@@H](O)[C@H]1O (stereo not given in full)")
4.00
>>> observedmeasurement("OC[C@H]1O[C@@H](n2cnc3cc(Cl)c(Cl)cc32)[C@H](O)[C@@H]1O")
4.52

Batch lookup, pIC50 per entry.
1. OC[C@H]1OC(n2c(Cl)nc3nc4cc(Cl)c(Cl)cc4cc32)[C@H](O)[C@@H]1O (stereo not given in full)
2. CC(C)Nc1nc2cc3cc(Cl)c(Cl)cc3cc2n1C1O[C@H](CO)[C@@H](O)[C@H]1O (stereo not given in full)
3. OC[C@H]1OC(n2c(Cl)nc3cc4cc(Cl)c(Cl)cc4cc32)[C@H](O)[C@@H]1O (stereo not given in full)
4. OC[C@H]1OC(n2c(NC3CC3)nc3cc4cc(Cl)c(Cl)cc4cc32)[C@H](O)[C@@H]1O (stereo not given in full)
5. OC[C@H]1OC(n2c(Cl)nc3cc4cc(Cl)c(Cl)cc4nc32)[C@H](O)[C@@H]1O (stereo not given in full)

[A]
[4.15, 4.10, 4.59, 4.10, 4.05]

---

Tested on: HFF
Assay: Visual cytotoxicity against stationary human foreskin fibroblasts (HFF) cells at the time of HCMV plaque enumeration
Type: functional, cell-based
readoutLabel: IC50 (µM)
Answers are plain numbers, in µM.

Reference set (2 entries):
>>> observedmeasurement("OC[C@H]1OC(n2c(Cl)nc3cc4cc(Cl)c(Cl)cc4nc32)[C@H](O)[C@@H]1O (stereo not given in full)")
18
>>> observedmeasurement("OC[C@H]1OC(n2c(SCc3ccccc3)nc3nc4cc(Cl)c(Cl)cc4nc32)[C@H](O)[C@@H]1O (stereo not given in full)")
20

Now examine the next entry.
[Q] Which IC50 is listed for CC(C)Nc1nc2nc3cc(Cl)c(Cl)cc3nc2n1C1O[C@H](CO)[C@@H](O)[C@H]1O (stereo not given in full) ?
[A] 100

---

Test system: HFF
Assay: Visual cytotoxicity against stationary human foreskin fibroblasts (HFF) cells at the time of HCMV plaque enumeration
Assay type: functional, cell-based
readoutLabel: IC50

Examples with answers:
>>> observedmeasurement("OC[C@H]1OC(n2c(Cl)nc3cc4cc(Cl)c(Cl)cc4cc32)[C@H](O)[C@@H]1O (stereo not given in full)")
"3.2 µM"
>>> observedmeasurement("CC(C)Nc1nc2cc3cc(Cl)c(Cl)cc3cc2n1C1O[C@H](CO)[C@@H](O)[C@H]1O (stereo not given in full)")
"32 µM"
>>> observedmeasurement("OC[C@H]1OC(n2cnc3cc4cc(Cl)c(Cl)cc4cc32)[C@H](O)[C@@H]1O (stereo not given in full)")
"> 100 µM"
>>> observedmeasurement("OC[C@H]1OC(n2cnc3nc4cc(Cl)c(Cl)cc4nc32)[C@H](O)[C@@H]1O (stereo not given in full)")
"45 µM"

# input for lookup
[Q] Checklist item: IC50 tested on HFF, entry OC[C@H]1OC(n2c(NC3CC3)nc3cc4cc(Cl)c(Cl)cc4nc32)[C@H](O)[C@@H]1O (stereo not given in full) , value?
[A] > 100 µM

Reference for the values: ChEMBL document CHEMBL1133751
